The values you see were collected from the supplement of paper PMC9663587.

system: UACC812; assay: GRmax, 72 h; higher = less effect
property: GRmax, 72 h (GR)
Write the answer as a number in GR, unit excluded.

Take a look at these entries with their results.
CNC(=O)c1cccc(-c2ccc3c(N4CCOC[C@@H]4C)nc(N4CCOC[C@@H]4C)nc3n2)c1 [AZD2014] (max 10 µM)    -0.585
Nc1cc(C(F)(F)F)c(-c2cc(N3CCOCC3)nc(N3CCOCC3)n2)cn1 [Buparlisib/NVP-BKM120] (max 10 µM)    -0.822
CCC(=O)Nc1ccc(C(=O)Nc2ccc(Nc3ncc4c(n3)N(C)c3ccc(C)cc3C(=O)N4C)cc2)cc1 [FMF-03-145-1]    -0.198
COc1cc(N2CCN(C)CC2)ccc1Nc1ncc2c(n1)N(C)c1ccccc1C(=O)N2CC(F)(F)F [FMF-03-146-1]    0.918

Jot down GRmax, 72 h (UACC812) of CC[C@@H]1C(=O)N(C)c2cnc(Nc3ccc(C(=O)N[C@H]4CC[C@H](N5CCN(CC6CC6)CC5)CC4)cc3OC)nc2N1C(C)C [Volasertib/BI6727] (max 1 µM) .
-0.496

====

system: CAL120; test: area over the GR curve, 72 h; higher = more effect
Readings of area over the GR curve for the listed molecules
Supply the numeric figure in GR, leaving out any unit text.

Write down area over the GR curve measured for item O=C(c1cc(Cc2n[nH]c(=O)c3ccccc23)ccc1F)N1CCN(C(=O)C2CC2)CC1 [Olaparib/AZD2281] (max 10 µM)
0.143

Identify area over the GR curve associated with the molecule CN(C)C/C=C/C(=O)Nc1ccc(O[C@@H]2CCC[C@@H](Nc3ncc(Cl)c(-c4c[nH]c5ccccc45)n3)C2)cc1 [BSJ-01-175] (max 10 µM)
0.667

Return value of area over the GR curve for input CC(=O)c1c(C)c2cnc(Nc3ccc(N4CCN(CCOCCOCCOCCNC(=O)COc5cccc6c5C(=O)N(C5CCC(=O)NC5=O)C6=O)CC4)cn3)nc2n(C2CCCC2)c1=O (stereo not drawn) [BSJ-03-123] (max 10 µM) , no commentary.
0.16

====

tested on: MDAMB415; assay: area over the GR curve, 72 h; higher = more effect;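 also: Dye Drop or Deep Dye Drop imaging of viable cells in 384-well plates (Hoechst nuclei, LIVE/DEAD dye), nine half-log doses, GR normalized to DMSO controls and time-zero plates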
property: area over the GR curve (GR)
Report only the number, with the unit GR understood.

O=C1NC(=O)[C@@H](c2cn3c4c(cccc24)CCC3)[C@@H]1c1c[nH]c2ccccc12 [Tivantinib/ARQ197] (max 10 µM)    0.213
CN(C)C/C=C/C(=O)Nc1ccc(C(=O)Nc2cccc(Nc3cc(-c4c[nH]c5ccccc45)ncn3)c2)cc1 [THZ-P1-2] (max 10 µM)    0.683
CC[C@@H]1C(=O)N(C)c2cnc(Nc3ccc(C(=O)N[C@H]4CC[C@H](N5CCN(CC6CC6)CC5)CC4)cc3OC)nc2N1C(C)C [Volasertib/BI6727] (max 1 µM)    0.546
CC(=O)Nc1cccc(-n2c(=O)n(C3CC3)c(=O)c3c(Nc4ccc(I)cc4F)n(C)c(=O)c(C)c32)c1 (max 1 µM)    0.174
CN(C)CC[C@H](CSc1ccccc1)Nc1ccc(S(=O)(=O)NC(=O)c2ccc(N3CCN(Cc4ccccc4-c4ccc(Cl)cc4)CC3)cc2)cc1[N+](=O)[O-] [ABT-737] (max 10 µM)    0.0607

Below: the item to evaluate.
Please report the measured area over the GR curve for CS(=O)(=O)N1CCN(Cc2cc3nc(-c4cccc5[nH]ncc45)nc(N4CCOCC4)c3s2)CC1 [Pictilisib/GDC0941] (max 10 µM)
0.378

====

test system: HCC1806; test: GRmax, 72 h; higher = less effect
property: GRmax, 72 h (GR)
Write it as a number; the unit GR goes unstated.

Past entries and their recorded results:
O=C(CCCCCCC(=O)Nc1ccccc1)NO [Vorinostat] (max 10 µM)    0.0178
NC(=O)Nc1cc(-c2cccc(F)c2)sc1C(=O)N[C@H]1CCCNC1 [AZD7762] (max 10 µM)    -0.482

Here is the next item to consider.
Report GRmax, 72 h for COc1cccc2c1C(=O)c1c(O)c3c(c(O)c1C2=O)C[C@@](O)(C(=O)CO)C[C@@H]3O[C@H]1C[C@H](N)[C@H](O)[C@H](C)O1 [Doxorubicin] (max 3.162 µM)
-0.324

====

test system: SUM190PT; test: GRmax, 72 h; higher = less effect
Outcome label depends on GRmax, 72 h relative to -0.01 GR: at/above gives t, below gives f.

CC(=O)O[C@H]1C(=O)[C@@]2(C)[C@H]([C@H](OC(=O)c3ccccc3)[C@]3(O)C[C@H](OC(=O)[C@H](O)[C@@H](NC(=O)c4ccccc4)c4ccccc4)C(C)=C1C3(C)C)[C@]1(OC(C)=O)CO[C@@H]1C[C@@H]2O [Paclitaxel] (max 1 µM)    f
CCCCOc1c(C(=O)c2c(F)cc(C)cc2F)c[nH]c2nncc1-2 (max 10 µM)    f
NC(=O)Nc1cc(-c2cccc(F)c2)sc1C(=O)N[C@H]1CCCNC1 [AZD7762] (max 10 µM)    f

Test whether the compound CN(C)C/C=C/C(=O)Nc1ccc(O[C@@H]2CCC[C@@H](Nc3ncc(Cl)c(-c4c[nH]c5ccccc45)n3)C2)cc1 [BSJ-01-175] (max 10 µM) records GRmax, 72 h of -0.01 GR or higher.
f

Record COc1cccc(OCCCN)c1-c1cc(Nc2cnc(C#N)cn2)n[nH]1 ; criterion: GRmax, 72 h no lower than -0.01 GR. Met?
f

Please indicate if the recorded GRmax, 72 h for COc1cc2c(Oc3ccc4[nH]c(C)cc4c3F)ncnc2cc1OCCCN1CCCC1 [Cediranib/AZD2171] (max 10 µM) meets or exceeds -0.01 GR.
t

Reported GRmax, 72 h at or above -0.01 GR? COc1cccc2c1C(=O)c1c(O)c3c(c(O)c1C2=O)C[C@@](O)(C(=O)CO)C[C@@H]3O[C@H]1C[C@H](N)[C@H](O)[C@H](C)O1 [Doxorubicin] (max 3.162 µM)
f

Kindly determine if GRmax, 72 h recorded for CC(C)Nc1cc(-c2c[nH]c(C(=O)N[C@H](CO)c3cccc(Cl)c3)c2)c(Cl)cn1 [BVD523] (max 10 µM) is above or exactly -0.01 GR.
t

====

tested on: MCF10A; assay: GRmax, 72 h; higher = less effect;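 also: breast cell lines in 384-well plates, nine doses across a 10^4 range, Dye Drop imaging of viable cells vs DMSO and time-zero plates, GR 0 means no net growth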
Label condition met when GRmax, 72 h >= 0.6 GR; otherwise condition not met.

In plain terms: is recorded GRmax, 72 h at least 0.6 GR for CCc1cnn2c(NCc3ccc[n+]([O-])c3)cc(N3CCCC[C@H]3CCO)nc12 (max 1 µM) ?
condition not met

Decide: is the reported value of GRmax, 72 h for CC(=O)O[C@H]1C(=O)[C@@]2(C)[C@H]([C@H](OC(=O)c3ccccc3)[C@]3(O)C[C@H](OC(=O)[C@H](O)[C@@H](NC(=O)c4ccccc4)c4ccccc4)C(C)=C1C3(C)C)[C@]1(OC(C)=O)CO[C@@H]1C[C@@H]2O [Paclitaxel] (max 1 µM) equal to or greater than 0.6 GR?
condition not met

Check this compound for GRmax, 72 h at or above 0.6 GR: Cc1nc(-c2cn3c(n2)-c2ccc(-c4cnn(C(C)(C)C(N)=O)c4)cc2OCC3)n(C(C)C)n1 [Taselisib/GDC0032] (max 10 µM)
condition not met

Check if GRmax, 72 h >= 0.6 GR (inclusive). Item: Nc1ccc(-c2ccc3ncc4ccc(=O)n(-c5cccc(C(F)(F)F)c5)c4c3c2)cn1 [Torin2] (max 1 µM)
condition not met

// inclusive: GRmax, 72 h at least 0.6 GR? input: O=C1NC(=NCc2cccs2)SC1=Cc1ccc2ncccc2c1 [R0-3306] (max 10 µM)
condition not met

Hi team, for CCc1cncnc1N1CCN(Cc2nc3ccc(C(F)(F)F)cc3[nH]2)CC1 (max 10 µM) , is the recorded GRmax, 72 h at or above 0.6 GR?
condition met

Check if GRmax, 72 h >= 0.6 GR (inclusive). Item: Cc1nn(C)c(COc2ccc(N3CCN(S(=O)(=O)N(C)C)CC3)cc2)c1-c1cccc2c(CCCOc3cccc4ccccc34)c(C(=O)O)n(CCN3CCOCC3)c12 (max 10 µM)
condition met

Please check the record CO[C@@H](C)Cn1c(=O)n(C)c2cnc3ccc(-c4cncc(C(C)(C)O)c4)cc3c21 (max 10 µM) and state if its GRmax, 72 h is at or above 0.6 GR.
condition not met

In plain terms: is recorded GRmax, 72 h at least 0.6 GR for COc1cc2c(Oc3ccc4[nH]c(C)cc4c3F)ncnc2cc1OCCCN1CCCC1 [Cediranib/AZD2171] (max 10 µM) ?
condition not met

Record CCCCOc1c(C(=O)c2c(F)cc(C)cc2F)c[nH]c2nncc1-2 (max 10 µM) ; criterion: GRmax, 72 h no lower than 0.6 GR. Met?
condition not met

Decide: is the reported value of GRmax, 72 h for CC1(N)CCN(c2cnc(-c3cccc(Cl)c3Cl)c(N)n2)CC1 [SHP099] (max 10 µM) equal to or greater than 0.6 GR?
condition not met

Check this compound for GRmax, 72 h at or above 0.6 GR: CO[C@H]1C[C@@H]2CC[C@@H](C)[C@@](O)(O2)C(=O)C(=O)N2CCCC[C@H]2C(=O)O[C@H]([C@H](C)C[C@@H]2CC[C@@H](OCCO)[C@H](OC)C2)CC(=O)[C@H](C)/C=C(\C)[C@@H](O)[C@@H](OC)C(=O)[C@H](C)C[C@H](C)/C=C/C=C/C=C/1C [Everolimus] (max 10 µM)
condition met

State whether the measured GRmax, 72 h reaches 0.6 GR, counting equality as reaching it, for CC(C)NC[C@@H](C(=O)N1CCN(c2ncnc3c2[C@H](C)C[C@H]3O)CC1)c1ccc(Cl)cc1 [Ipatasertib/GDC0068] (max 10 µM)
condition met

Can O=C(c1cc(Cc2n[nH]c(=O)c3ccccc23)ccc1F)N1CCN(C(=O)C2CC2)CC1 [Olaparib/AZD2281] (max 10 µM) be said to have GRmax, 72 h at or above 0.6 GR?
condition met
